# Tested on: SKOV3
# protocol-description: Primary qHTS to identify gynecologic anti-cancer compounds using libraries of approved drugs and bioactive compounds (AID 1345084); note: % is set by controls: 0 for no effect and ±100 for the full control effect; nearly all actives have a fitted effect of over 55% in size
# measurement-parameters: Gynecologic cancer cell panel viability, ATPlite luminescence, 48 h; series mostly up to 57.5 µM
# Text: National Center for Advancing Translational Sciences [NCATS] Assay Overview: Chemotherapeutic drug responses vary from cancer to cancer and from patient to patient. […] ATPlite is a luminescence based assay reliant on the conversion of a luciferase substrate to light in the presence of ATP. As a cytotoxic compound will suppress growth and decrease the number of cells, the concentration of ATP will decrease, and less light signal will be detected in the well. […]
Results filed as inconclusive are left out. Calls of active or inactive are those of the source. Calls come from the whole dose curve; as a rule, active = well fitted cell-killing curve with a large enough effect; inconclusive = small, poorly fitted or top-dose-only effect, or effect the other way; inactive = flat fitted curve, though single readings scatter.
test-readout: activity change, negative = cytotoxicity

Previously resolved entries follow.
compound | test-readout | observed
C[C@@H]1O[C@@H](O[C@H]2[C@H](OC(=O)[C@]34CCC(C)(C)C[C@H]3C3=CCC5[C@@]6(C)CC[C@H](O[C@@H]7O[C@H](CO[C@@H]8OC[C@H](O)[C@H](O)[C@H]8O[C@@H]8OC[C@@H](O)[C@H](O)[C@H]8O)[C@@H](O)[C@H](O)[C@H]7O)C(C)(C)C6CC[C@@]5(C)[C@]3(C)C[C@H]4O)O[C@H](CO)[C@@H](O)[C@@H]2O)[C@H](O[C@@H]2O[C@H](CO)[C@@H](O)[C@H](O)[C@H]2O)[C@H](O)[C@H]1O[C@@H]1OC[C@@H](O)[C@H](O[C@@H]2OC[C@@H](O)[C@H](O)[C@H]2O)[C@H]1O (some centres not stated) | activity change, negative = cytotoxicity | 0% [at 6.55 µM] (inactive)
CC1(C)C[C@H](O)C[C@@]2(C)[C@H]1[C@H](O)C=C1COC(=O)[C@@]12O | activity change, negative = cytotoxicity | inactive
C=C1CC/C=C(/CO)C(=O)C[C@@H]2[C@@H]1C[C@@]2(C)COC(C)=O | activity change, negative = cytotoxicity | inactive
CC1(C(=O)O)CCCC2(C)C3CCC4CC3(CCC12)CC4C(=O)O (configuration not stated) | activity change, negative = cytotoxicity | inactive
C=C(C)[C@@H]1CC[C@]2(C(=O)O)CC[C@]3(C)[C@H](CCC4[C@@]5(C)CCC(=O)C(C)(C)C5C(O)C[C@]43C)C12 (some centres not stated) | activity change, negative = cytotoxicity | inactive

stdin: Look up activity change, negative = cytotoxicity: COC1CC(O[C@H]2CC[C@@]3(C)C(=CC[C@]4(O)C3[C@H](O)[C@@H](O)[C@]3(C)[C@@H]([C@H](C)O)CC[C@@]34O)C2)OC(C)C1OC1CC(OC)C(OC2CC(OC)C(OC3OC(C)C(OC4OC(CO)C(O)C(O)C4O)C(OC)C3O)C(C)O2)C(C)O1 (some centres not stated)
stdout: 1.02% [at 11.6 µM] (inactive)

stdin: Recorded activity change, negative = cytotoxicity of C=C(C)C1CCC2(C(=O)OC3OC(COC4OC(CO)C(O)C(O)C4O)C(OC4OC(C)C(O)C(O)C4O)C(O)C3O)CCC3(C(=O)O)C(CCC4C5(C)CCC(=O)C(C)(C)C5CCC43C)C12 (configuration not stated) , please.
stdout: -6.38% [at 11.6 µM] (inactive)

stdin: Which value of activity change, negative = cytotoxicity has been reported for Fc1ccc(-c2c3cccc(C(F)(F)F)c3nn2Cc2ccc(F)cc2Cl)cc1 in the records?
stdout: inactive
